Molecular target: TrkB (Homo sapiens (Human), UniProt Q16620 32-430)
Sequence (Q16620 32-430 limits assumed): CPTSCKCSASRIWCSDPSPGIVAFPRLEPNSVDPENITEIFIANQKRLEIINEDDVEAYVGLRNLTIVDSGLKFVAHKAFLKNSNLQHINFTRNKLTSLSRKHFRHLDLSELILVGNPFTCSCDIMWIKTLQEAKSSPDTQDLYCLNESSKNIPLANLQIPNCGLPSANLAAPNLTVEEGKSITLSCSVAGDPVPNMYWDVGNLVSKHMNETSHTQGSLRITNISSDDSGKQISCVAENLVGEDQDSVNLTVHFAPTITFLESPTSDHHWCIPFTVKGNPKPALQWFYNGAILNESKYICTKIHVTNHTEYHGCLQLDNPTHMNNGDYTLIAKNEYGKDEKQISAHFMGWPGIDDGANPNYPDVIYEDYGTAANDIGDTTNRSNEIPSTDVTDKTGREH
Test: koff of Fab at 25 C; T1/2=Log2/koff
Recorded endpoint: T1/2 (min)
I only need the number, in min, no unit after it.

Request: Tell me T1/2 reported for 4B12-21 (Fab, V domains shown, Fab) VH: QVQLVQSGAEVKKPGASVKVSCKASGYTFTNYDIIWVRQAPGQGLEWMGYINPYNGRREYNEKFKGRVTMTRDTSTSTVYMELSSLRSEDTAVYYCARLLAYRRFRYYAIDYWGQGTTVTVSS VL: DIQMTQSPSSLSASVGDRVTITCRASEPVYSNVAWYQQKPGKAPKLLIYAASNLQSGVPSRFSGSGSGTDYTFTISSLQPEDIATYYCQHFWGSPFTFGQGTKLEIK
Result: 0.3

Request: Tell me T1/2 reported for 12-A8 (Fab, V domains shown, Fab) VH: QVQLVQSGAEVKKPGASVKVSCKASGYTFTNYDIIWVRQAPGQGLEWMGYINPYNDGRKENEKFKGRVTMTRDTSTSTVYMELSSLRSEDTAVYYCARLLKYRRFRYYAIDYWGQGTTVTVSS VL: DIQMTQSPSSLSASVGDRVTITCRASENVYSNLAWYQQKPGKAPKLLIYAASNLQSGVPSRFSGSGSGTDFTFTISSLQPEDIATYYCQHFWGSPFTFGQGTKLEIK
Result: 3.3

Request: Tell me T1/2 reported for 9-D9 (Fab, V domains shown, Fab) VH: QVQLVQSGAEVKKPGASVKVSCKASGYTFTNYVILWVRQAPGQGLEWMGYINPYNDGTKYNEKFKGRVTMTRDTSTSTVYMELSSLRSEDTAVYYCARLLKYRRFRYYAIDYWGQGTTVTVSS VL: DIQMTQSPSSLSASVGDRVTITCRASENVYSNLAWYQQKPGKAPKLLIYAASNLQSGVPSRFSGSGSGTDFTFTISSLQPEDIATYYCQHFWYSPFAFGQGTKLEIK
Result: 1.54

The reported measurements were obtained from patent US20100196390A1.
